- System: UO-31 renal
- protocol: NCI-60 one-dose screen, 48 h (100 = growth as untreated, 0 = no growth, -100 = all killed)
- conditions-used: 10 µM unless noted
Compounds without any hit were thinned out: in the full panel of roughly 83,000, 20% have a hit.
Threshold-based label: growth under 30% gives Met, growth not under 30% gives Not met.

{"columns": ["compound", "assigned-class"],
 "data": [
  ["NC(=S)N/N=C\\c1nccc2c(C(F)(F)C(F)(F)C(F)(F)F)cccc12", "Met"],
  ["Oc1c(Cl)c2ccccc2c2ccccc12", "Not met"],
  ["CCCCCCCCCCCCCCCCOP(=O)([O-])OCC[N+](C)(C)C", "Met"],
  ["O=C1C=CC(=O)N1C1c2ccccc2-c2ccccc21", "Not met"],
  ["O=C(/C=C\\c1cc(Br)ccc1O)/C=C/c1cc(Br)ccc1O", "Met"],
  ["OC(CNc1ccnc2cc(Cl)ccc12)CNc1ccnc2cc(Cl)ccc12", "Not met"],
  ["CCC(=O)Sc1ccccc1C(=O)Nc1ccc(Cl)cc1", "Not met"],
  ["CCOC(=O)c1c(C)[nH]c(CO)c1C", "Not met"],
  ["CCN1/C(=C\\c2cc[n+](CC)c3ccccc23)C=Cc2ccccc21", "Met"],
  ["CN(C)C(=O)SC1=C(c2c(Cl)cccc2Cl)C(=O)c2ccccc21", "Met"],
  ["CCC(CC)COC(=O)c1ccc(O)c(O)c1", "Met"],
  ["COc1cc(/C=C(/C)C[N+](=O)[O-])ccc1O", "Not met"],
  ["O=C(/C=C/C=C/c1ccccc1)c1ccco1", "Not met"],
  ["CN(C)c1ccc(N=Nc2cccc3ccccc23)cc1", "Not met"],
  ["Oc1c(Br)cc(Cl)cc1C(c1cc(Cl)cc(Br)c1O)C(Cl)(Cl)Cl", "Met"],
  ["CCOC(=O)/C(=C\\c1ccc(-c2ccccc2)cc1)C(C)=O", "Not met"],
  ["CN(C)c1ccc(C(=C2C=CC(=[N+](C)C)C=C2)c2ccc(N(C)C)cc2)cc1 (tested in a mixture with another compound)", "Met"],
  ["CNC(=O)N/N=C/c1ccc([N+](=O)[O-])o1", "Not met"],
  ["CCN(CC)CCOc1ccc(-c2nc3cc(Cl)ccc3s2)cc1", "Met"],
  ["CC(=Nc1ccc(N(C)C)cc1)c1ccccc1", "Not met"],
  ["Cc1ccnc2c1ccc1c(C)ccnc12", "Met"],
  ["CCOc1ccc(-c2nc3ccc(-c4nc5ccc(N6CCN(C)CC6)cc5[nH]4)cc3[nH]2)cc1", "Met"],
  ["CN(C)c1ccc(/C=N/N=C(\\C#N)[S][Sn]([Cl])([c]2ccccc2)[c]2ccccc2)cc1", "Met"],
  ["O=Nc1ccccc1N=O", "Not met"],
  ["NC(=O)/C=C/C(=O)c1c(Cl)cccc1Cl", "Met"],
  ["NC(=S)N/N=C/c1ccc(Cl)s1", "Not met"],
  ["O=C(/C=C\\c1ccccc1)N1c2ccccc2CC1c1c[nH]c2ccccc12 (stereo not drawn)", "Not met"],
  ["CC(=O)ON=C1C=CC(=C(C#N)c2ccccc2)C=C1", "Not met"],
  ["Cc1cc(C(C)(CC(C)C)c2ccc(O)c(C)c2)ccc1O", "Not met"],
  ["O=C1c2ccccc2C(=O)c2sc(Nc3cccc(Cl)c3)nc21", "Met"],
  ["N#CC1C(=O)SC2c3ccccc3C(=O)c3ccccc3C12 (stereo not drawn)", "Not met"],
  ["Oc1c(Br)c(Br)c(O)c(Br)c1Br", "Met"],
  ["Cc1ccc2nc(C[n+]3ccc4ccccc4c3)ccc2c1", "Not met"]
]}
